# Test System: T1, human 4-1BB on cells (human, UniProt Q07011 24-255)
# T1 construct: whole, on cells; Stably transfected CHO cells (flow cytometry) and bought Jurkat reporter cells (bioassay); also called Flp-In-CHO::hu4-1BB; human 4-1BB-expressing CHO cells
# T1 sequence (Q07011 24-255): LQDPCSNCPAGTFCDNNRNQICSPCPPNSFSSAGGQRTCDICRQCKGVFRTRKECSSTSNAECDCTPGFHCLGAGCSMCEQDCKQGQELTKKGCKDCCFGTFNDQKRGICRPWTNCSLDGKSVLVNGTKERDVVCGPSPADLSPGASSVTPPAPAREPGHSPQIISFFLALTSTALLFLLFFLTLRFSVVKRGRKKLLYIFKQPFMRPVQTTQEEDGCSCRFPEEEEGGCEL
# Measurement Protocol: flow cytometry, Flp-In-CHO::hu4-1BB cells
Measurement Type: EC50
The reply should consist of the numeric value with the unit placed after it.

[in] EC50 lookup needed for multimeric protein SEQ ID NO: 42 (designed binder) QDSTSDLIPAPPLSKVPLQQNFQDNQFHGKWYVVGQAGNIRLREDKDPIKMMATIYELKEDKSYDVTMVKFDDKKCMYDIWTFVPGSQPGEFTLGKIKSFPGHTSSLVRVVSTNYNQHAMVFFKFVFQNREEFYITLYGRTKELTSELKENFIRFSKSLGLPENHIVFPVPIDQCIDGAEAAAKEAAAKEAAAKAGVRLWATRQAMLGQVHEVPEGWLIFVAEQEELYVRVQNGFRKVQLEARTPLGGSGGAPEQKLISEEDLGSHHHHHHHHHH , thanks.
[out] 8.5 nM
